- Tested on: HepG2 cells
- PROTOCOL: HepG2 cytotoxicity assay
- Format: cell-based
- RECORDED_CONDITIONS: mean
Quick rule for you: HepG2 cells mean TOX50 under 4 µM gets Criterion met, anything else gets Criterion not met.

# count of solved cases: 4
COc1ccc2ccccc2c1CNCCCCCCNCc1c(OC)ccc2ccccc12.Cl; Criterion not met
CN(C)CCNCc1ccc(-c2ccc3c(Nc4ccc(Oc5ccccc5)cc4)ccnc3c2)o1; Criterion not met
CC(=O)Nc1ccc2[nH]cc(C3CCN(CC4CCC(NC(=O)/C=C/c5ccc(Cl)c(Cl)c5)CC4)CC3)c2n1 (centres unmarked); Criterion not met
CC(CNC(=N)c1cccc(C(=N)NCC(C)Oc2cccc(C3CCCCC3)c2)n1)Oc1cccc(C2CCCCC2)c1.Cl (centres unmarked); Criterion met

Does this compound meet the criterion HepG2 cells mean TOX50 < 4 µM? Nc1nc(N)c2c(ccc3c2ccn3Cc2ccc(-c3ccccc3)cc2)n1
Criterion met

In plain terms, does COC(=O)c1ccc(-c2ccc(-c3cccnc3)cc2C)cc1 come in under 4 µM for HepG2 cells mean TOX50?
Criterion met

Take the compound C=CCOc1ccc2ccccc2c1CNCCCCCCNCc1c(OCC=C)ccc2ccccc12.CS(=O)(=O)O and say whether its HepG2 cells mean TOX50 is less than 4 µM.
Criterion met

Identify whether the compound CS(=O)(=O)O.FC(F)(F)COc1ccc2ccccc2c1CNCCCCCCNCc1c(OCC(F)(F)F)ccc2ccccc12 records HepG2 cells mean TOX50 below 4 µM.
Criterion met

====

Answer each item with its documented HepG2 cells mean TOX50.
- Tested on: HepG2 cells
- PROTOCOL: HepG2 cytotoxicity assay
- Type: cell-based
- RECORDED_CONDITIONS: mean
One number for each entry, in µM.

See these solved cases before continuing.
CC(C)(C)c1ccc(CNC(=O)c2cc(CNC3CCNCC3)ccc2O)cc1 [TCMDC-140775]; 13.96
CC(NCCc1cccc(Cl)c1)C(O)c1ccc(OCCCCCCOc2ccc(C(O)C(C)NCCc3cccc(Cl)c3)cc2)cc1 (stereo not shown) [TCMDC-139334]; 2.63
CC(=O)Nc1ccc2[nH]cc(C3CCN(CC4CCN(C(=O)/C=C/c5ccc(Cl)c(Cl)c5)CC4)CC3)c2n1 [TCMDC-140112]; 12.59

# next molecule below
Using the record for CC(C)(C)c1ccc(-c2cc3c(ccc4nc(N)nc(N)c43)[nH]2)cc1 [TCMDC-137977] , report its HepG2 cells mean TOX50.
1.86

====

Please provide measured IC50 for the entries that follow.
- System: P. falciparum stage V female gametocytes
- PROTOCOL: P. falciparum female gametocyte activation assay (Pf FGAA), 24 h or 48 h preincubation, Pfs25 expression readout
- Type: cell-based, Plasmodium falciparum NF54
- RECORDED_CONDITIONS: 24h incubation time; read-out: Pf FGAA IC50 (µM) 24h

CN1CCC(NCc2cccc(-c3ccc(S(=O)(=O)NCc4ccccc4)c(F)c3)c2)CC1.O=C(O)C(F)(F)F; 12.2 µM
CN(C)CCOc1ccc(NC(=O)NC(C)(C)c2nc(-c3ccc(Cl)c(O)c3)c(-c3ccncc3)[nH]2)cc1.Cl; 0.23 µM
C[C@H](Cc1ccc(OCCCCCCOc2ccc(C[C@@H](C)N[C@H](C)c3ccccc3)cc2)cc1)NC[C@H](O)c1cccc(Cl)c1.Cl; 2.89 µM
O=C(Nc1cc(Cl)c(Cl)cc1NC(=O)c1cccc(-c2ccccc2)c1O)c1cccc(-c2ccccc2)c1O; 2.22 µM
Cc1cc(C(F)(F)F)cc(-n2ncc(-c3ccc(C(=O)NCc4ccccc4N)cc3)c2N)n1.O=C(O)C(F)(F)F; 12.5 µM
CCn1c(-c2nonc2N)nc2c(-c3cccc(NC(=O)Nc4ccc(Cl)cc4)c3)ncc(OCCCN)c21.O=C(O)C(F)(F)F; 6.65 µM

Record request: IC50 value, item CN(C)CCNCc1cccc(-c2ccc3c(Nc4ccc(Oc5ccccn5)cc4)ccnc3c2)c1
2.58 µM

====

- System: HepG2 cells
- PROTOCOL: HepG2 cytotoxicity assay
- Format: cell-based
- RECORDED_CONDITIONS: HepG2 cells; mean
Label class 1 for high-side HepG2 cells mean TOX50 (at or above 4 µM) and class 0 for low-side HepG2 cells mean TOX50 (below it).

Solved entries (count: 6):
C[C@H](Cc1ccc(Oc2ccc(C[C@@H](C)NC[C@H](O)c3cccc(Cl)c3)cc2)cc1)NC[C@H](O)c1cccc(Cl)c1.Cl; class 0
Cc1ccc(Cl)c2sc(N3CCN(C(=O)c4ccc([N+](=O)[O-])o4)CC3)nc12; class 1
CC(C)(C)c1ccc(CN2CCC(CNC(=O)c3cc(-c4cccc(Cl)c4)cs3)C2)cc1.O=C(O)C(F)(F)F (stereo not shown); class 1
CC(C)N1CCN(C(CN2CCN(CCCOc3ccccc3-c3ccccc3)CC2)c2ccc(F)cc2)CC1.Cl (stereo not shown); class 1
FC(F)(F)c1ccc2[nH]c(-c3ccc(-c4cccc(CNCCN5CCNCC5)c4)cc3)nc2c1.O=C(O)C(F)(F)F; class 1
COc1ccc2nc3cc(Cl)ccc3c(N)c2c1.Cl; class 0

Please look at the following molecule next.
Hello, I need to know if Cc1cccc2nc(-c3ccc(-c4ccc(CNCc5ccc(CN)cc5)cc4)cc3)[nH]c12.O=C(O)C(F)(F)F has measured HepG2 cells mean TOX50 not below 4 µM. Thanks!
class 1

====

For each of the compounds below, state its IC50.
- System: P. falciparum stage V female gametocytes
- PROTOCOL: P. falciparum female gametocyte activation assay (Pf FGAA), 24 h or 48 h preincubation, Pfs25 expression readout
- Type: cell-based, Plasmodium falciparum NF54
- RECORDED_CONDITIONS: 24h incubation time; read-out: Pf FGAA IC50 (µM) 24h
One number for each entry, in µM.

CCN(CCNS(C)(=O)=O)c1ccc(N)c(C)c1.O.O=S(=O)(O)O [TCMDC-125836]; 0.3

Now, please, on to the next compound.
// IC50 lookup, key: Clc1ccc(-c2csc3ncnc(Cl)c23)cc1 [TCMDC-123811]
3.25

====

- System: HepG2 cells
- PROTOCOL: HepG2 cytotoxicity assay
- Type: cell-based
- RECORDED_CONDITIONS: mean
- Method: After incubation, plates and CellTiter-Glo Reagent (G7571, Promega) were equilibrated at room temperature for 30 min before proceeding to develop the luminescent signal. Using a Multidrop combi dispenser, 25 μl per well of the signal developer were added to the plates and after 10 min at room temperature for stabilization, plates were read on the ViewLux system (Perkin Elmer).
I'd appreciate it if you could supply HepG2 cells mean TOX50 values for the items below.
Numbers only, in µM.

For orientation, consider the following solved cases.
CCN(CC)CCN(Cc1ccc(-c2ccc(C(F)(F)F)cc2)cc1)C(=O)Cn1cc(Cc2cnn(C)c2)c(=O)nc1/C=C/c1ccc(F)cc1.O=C(O)C(O)C(O)C(=O)O; 13.81
COc1ccc(CNCCCCCCNCc2ccc(OC)c3ccccc23)c2ccccc12.Cl; 1.82

What reported HepG2 cells mean TOX50 corresponds to CCn1c(-c2nonc2N)nc2c(-c3cccc(NC(=O)Nc4ccc(Cl)cc4)c3)ncc(OCCCN)c21.O=C(O)C(F)(F)F on HepG2 cells?
10.96

====

- Test system: P. falciparum stage V female gametocytes
- PROTOCOL: P. falciparum female gametocyte activation assay (Pf FGAA), 24 h or 48 h preincubation, Pfs25 expression readout
- Assay type: cell-based, Plasmodium falciparum NF54
- RECORDED_CONDITIONS: P. falciparum female gametocytes; mean; read-out: Gametocytes mean Pf FGAA IC50
Give measured IC50 for each item. Keep answers brief.
Answers are plain numbers, in nM.

Here are 7 molecules together with their reported answers.
c1ccn2c(Sc3ncnc4sccc34)ncc2c1 [TCMDC-124602]; 240
N=C(/N=C(/NCCCCCCN/C(=N/C(=N)NCc1ccc(Cl)c(Cl)c1)N1CCCCC1)N1CCCCC1)NCc1ccc(Cl)c(Cl)c1 [TCMDC-131816]; 2610
CCN(CC)CCCn1c(N)c(-c2nc3ccccc3[nH]2)c2nc(C#N)c(C#N)nc21 [TCMDC-123680]; 740
Fc1ccc2nc(Nc3nc(-c4ccccn4)cs3)sc2c1 [TCMDC-125540]; 54.3
Cc1sc2nc(CN3CCCC3)nc(-n3c(NCCO)nc4ccccc43)c2c1C [TCMDC-124811]; 7050
CN(C)c1ccc(-c2csc(C(=O)NCC3CCN(Cc4cccc(C(F)(F)F)c4)C3)c2)cc1.O=C(O)C(F)(F)F (centres unmarked) [TCMDC-134486]; 1560
CCc1c(CCNCCCCCCNCCc2ccc3c(c2C)OCO3)ccc2c1OCO2.Cl [TCMDC-132093]; 1020

From here, focus on the item given below.
Entry FC(F)(F)c1ccc2[nH]c(-c3cccc(-c4cccc(CNCCN5CCNCC5)c4)c3)nc2c1.O=C(O)C(F)(F)F [TCMDC-132871] has what IC50?
1220
